Experiment: Components of the Cytosolic LPS Sensing Pathway: Gene Identification via Genome-wide siRNA Screen
Conditions: RAW264.7 macrophages, IL-1a HTRF, actives lie on both sides, screened at 100 nM (by protocol), cells primed 5 h with Pam3CSK4 first
Among all 53,000 sequences or so, about 3,700 (7%) were called active. The sample as a whole holds a higher share of actives than the screen did.
Listing: z-score of selected sequences
Quantity kind: z-score

INSERT INTO assay_data (sequence_code, quantity_kind, recorded_number) VALUES
  ('CGUCUCAACAGAGUUGGAGTT against Prmt2', 'z-score', 1.94),
  ('CCUUCUAGAGUACAUCAUATT against Prl7d1', 'z-score', 0.298),
  ('GGCUUUGUCUACACUUUCATT against Olfr1308', 'z-score', -1.02),
  ('GCAAUGGACUACUGCUGCUTT against Olfr704', 'z-score', -2.26),
  ('GCAUCAUGAACUCCUUUGUTT against H2bc1', 'z-score', -2.43),
  ('GGCUUUCAUGUGCCGUUUUTT against Gstm5', 'z-score', 2.39),
  ('GGGACUUCCUUAUUGGAACTT against A830019P07Rik', 'z-score', 1.23),
  ('GCCUGUUCUAUGUUACUGGTT against Olfr320', 'z-score', -1.99),
  ('GCGAACAGUUGAAUAGAUUTT against Slc25a46', 'z-score', -0.108),
  ('GGAGGUUUUCAUGGUUAUCTT against Nrgn', 'z-score', 0.0293),
  ('GGGAUGAAGUGUUCCAUCCTT against Ccdc187', 'z-score', 2.88),
  ('GGACUUCUACACCUCGAAATT against Amz2', 'z-score', -1.05);

----------
Experiment: Components of the Cytosolic LPS Sensing Pathway: Gene Identification via Genome-wide siRNA Screen;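 further: robust z of the log signal after scaling to non-targeting control siRNA wells of the plate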
Details: RAW264.7 macrophages, IL-1a HTRF, actives lie on both sides, screened at 100 nM (by protocol), cells primed 5 h with Pam3CSK4 first
In all, about 53,000 sequences went through this assay and about 3,700 (7%) were called active. The sample as a whole holds a higher share of actives than the screen did.
# binarize z-score: threshold -0.1 inclusive, high side Met, low side Not met

INSERT INTO measurements (sequence_code, label) VALUES
  ('GGACAAUGCUAAUGAGACCTT against Gcsam', 'Not met'),
  ('GGCUCAAUUUGGAAAGGACTT against Anxa8', 'Not met'),
  ('CCAAUCUGAAGUGCUACUATT against Trim42', 'Met'),
  ('CGCUGAAGUCUUUUCACAATT against Baiap2', 'Met'),
  ('GGUUGUCAUUCUUAUCCUUTT against Mageb1', 'Met'),
  ('CCUCAUCCUUAGUUGUUUUTT against Ift88', 'Not met'),
  ('GGAGCUGAGGGAACCUUGUTT against Slc35c1', 'Not met'),
  ('GGGUGCAUUUGAGAAGAUCTT against Casd1', 'Met'),
  ('GCACUUCAAUCCAGUGUCUTT against Pdgfd', 'Not met'),
  ('GGGUGACCUUUACGUCUUCTT against Reep1', 'Met'),
  ('GCCUACAAUCGAGACAGUUTT against Sgca', 'Met'),
  ('GGACAACAUUGACAAGUUCTT against Clcn7', 'Met'),
  ('GGAGCUUGCUCAGACUACUTT against Cct8', 'Not met'),
  ('GGGUUCAAGAUAUCAAGUATT against 4933434E20Rik', 'Met'),
  ('CCACAUGAGUGGACCUACGTT against Arid3c', 'Not met'),
  ('GGAAGGAUCUAAUCUUUUUTT against Vamp2', 'Met'),
  ('GCUGAAAGGAAUGUGCUCATT against Hspa8', 'Not met'),
  ('GCAAAUUUUAUAUGCGACUTT against Glipr1', 'Not met'),
  ('GGAAAUCCAACUUCUUUCATT against Ebf2', 'Met'),
  ('GGCUUAACAGAGAAACACCTT against Lrrc49', 'Met'),
  ('CCGUCCCUAUGAAAUCAGCTT against Lrat', 'Met'),
  ('GCUACACCCUCUGUGAGUUTT against Csrnp2', 'Not met'),
  ('GACGCAGAUGGUAUUUUUUTT against Orm2', 'Met'),
  ('CGACUACAAUGGGCUCAAGTT against Kifc3', 'Not met'),
  ('GGUUUGUGGUGAACUUUCATT against Lgals9', 'Met'),
  ('GCACUUCGAAGAAAUAAAATT against Ahsa2', 'Met'),
  ('GGAGAAUUAACUGUUCCUCTT against Kcnmb2', 'Met'),
  ('GGUGAAGGUGAACAAGGACTT against Myh9', 'Met'),
  ('CGUACCUAAGCAUACCAGCTT against Gpr20', 'Met'),
  ('GGUUUCCAGUUAUCUUAAUTT against Glipr1l2', 'Met'),
  ('GGUGAAAUGAGAAUACUUGTT against Erap1', 'Met'),
  ('GGCAAUGCACUUAUAACUCTT against Olfr118', 'Met'),
  ('GGAGUUUGAAGACUUUUUGTT against Pstpip2', 'Met'),
  ('CGGUGGUCACUGUGAAAUGTT against Nr1h5', 'Met'),
  ('GGAACCAAAAGCCUGGCGATT against Pkd1l3', 'Not met'),
  ('GGAGAUGAAAAAAACGAGCTT against Rxylt1', 'Not met'),
  ('GGAGCUCUGGCACUUUGUCTT against Gramd1b', 'Met'),
  ('GGAUUCUGAAGUGUAAAGATT against Icos', 'Not met'),
  ('GCAGUAAAUGUCCCAUCCGTT against Caskin1', 'Not met'),
  ('GGAGAUGGUUAUGUGGGAUTT against Tgoln2', 'Met'),
  ('GGAACUAAUGUGCAGGAGGTT against Suclg2', 'Met'),
  ('GGACAGAUACGUUAUCAAGTT against Il3', 'Met'),
  ('GGAGGGACUUACCACAAGGTT against Timeless', 'Met'),
  ('GGGAGCAGUCUUCCCUCAUTT against Cox8a', 'Not met');

----------
# z-score per record follows
Assay: Components of the Cytosolic LPS Sensing Pathway: Gene Identification via Genome-wide siRNA Screen;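 further: robust z of the log signal after scaling to non-targeting control siRNA wells of the plate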
Settings: RAW264.7 macrophages, IL-1a HTRF, actives lie on both sides, screened at 100 nM (by protocol), cells primed 5 h with Pam3CSK4 first
In all, about 53,000 sequences went through this assay and about 3,700 (7%) were called active. The entries come from a sample that favours actives as a whole.
Quantity kind: z-score

INSERT INTO measurements (sequence_code, quantity_kind, recorded_number) VALUES
  ('GGCAAAGAAUGCACUUUCUTT against Elapor2', 'z-score', -0.536),
  ('GGUAAAGAAAUCCUUCAAATT against Syt6', 'z-score', 2.1),
  ('CCUUGUUCAAAAAGAUGGCTT against Serpina1f', 'z-score', -2.08),
  ('GGUUUCCUUUAUCAAGAAGTT against Snrnp25', 'z-score', -0.00388),
  ('GCUUGGUGGGUUUGUUGAUTT against Slc28a1', 'z-score', -0.113),
  ('GGUAAAGUUGCUUAAUUAGTT against Msl3l2', 'z-score', 0.944);

----------
Experiment: Components of the Cytosolic LPS Sensing Pathway: Gene Identification via Genome-wide siRNA Screen;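 further: robust z of the log signal after scaling to non-targeting control siRNA wells of the plate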
Settings: RAW264.7 macrophages, IL-1a HTRF, actives lie on both sides, screened at 100 nM (by protocol), cells primed 5 h with Pam3CSK4 first
Description: Non-canonical inflammasome activation by cytosolic LPS is a critical component of the host response to Gram-negative bacterial infection, however we lack a comprehensive understanding of the cellular processes that control this pathway. […] Lipofectamine RNAiMAX Transfection Reagent ([…]; Invitrogen) was added in […] serum-free, antibiotic-free media to plate wells using a Thermo Scientific Matrix WellMate and Microplate Stacker. […] The plates were read on an EnVision plate reader (PerkinElmer). […]
About 3,700 (7%) of roughly 53,000 sequences were called active. Many of the other results were omitted from the sample, so actives are more common in it than they were.
The following sequences are listed with their measured z-score values.
Quantity kind: z-score

INSERT INTO results (sequence_code, result) VALUES
  ('GGUAGUGUCUAACUUCUGGTT against Zkscan17', '2.13 (active)'),
  ('GGAGAUUGGACCACUAUGATT against Sec24d', '-1.31 (inactive)'),
  ('CGGAAUGUAGGACACGAAUTT against Ltb', '-0.267 (inactive)');

----------
Assay: Components of the Cytosolic LPS Sensing Pathway: Gene Identification via Genome-wide siRNA Screen;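 further: robust z of the log signal after scaling to non-targeting control siRNA wells of the plate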
Conditions: RAW264.7 macrophages, IL-1a HTRF, actives lie on both sides, screened at 100 nM (by protocol), cells primed 5 h with Pam3CSK4 first
Description: Non-canonical inflammasome activation by cytosolic LPS is a critical component of the host response to Gram-negative bacterial infection, however we lack a comprehensive understanding of the cellular processes that control this pathway. […] Lipofectamine RNAiMAX Transfection Reagent ([…]; Invitrogen) was added in […] serum-free, antibiotic-free media to plate wells using a Thermo Scientific Matrix WellMate and Microplate Stacker. […] The plates were read on an EnVision plate reader (PerkinElmer). […]
Out of some 53,000 sequences screened, about 3,700 (7%) were called active.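 Rule for the calls: active = gene knockdowns whose robust z-score for IL-1 alpha signal is at least 2 or at most -2, so actives lie on both sides; inactive = the rest.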 This excerpt belongs to a sample that is enriched for actives.
Possible outcomes: 1.0 = active, 0.0 = inactive

INSERT INTO results (sequence_code, label) VALUES
  ('GGACUAUAGAUCCUAAGUCTT against Kcnab2', 0.0),
  ('CCUACAGUACUUCAAGCGGTT against Hip1', 0.0),
  ('GGUCUGUCUCGUCUACAAUTT against Gstm1', 1.0),
  ('GGAUGUUAAAGCAAGUGUATT against Olfr1153', 0.0);
